measured target: GSK3β (Homo sapiens)
Sequence (P49841 whole entry, species assumed): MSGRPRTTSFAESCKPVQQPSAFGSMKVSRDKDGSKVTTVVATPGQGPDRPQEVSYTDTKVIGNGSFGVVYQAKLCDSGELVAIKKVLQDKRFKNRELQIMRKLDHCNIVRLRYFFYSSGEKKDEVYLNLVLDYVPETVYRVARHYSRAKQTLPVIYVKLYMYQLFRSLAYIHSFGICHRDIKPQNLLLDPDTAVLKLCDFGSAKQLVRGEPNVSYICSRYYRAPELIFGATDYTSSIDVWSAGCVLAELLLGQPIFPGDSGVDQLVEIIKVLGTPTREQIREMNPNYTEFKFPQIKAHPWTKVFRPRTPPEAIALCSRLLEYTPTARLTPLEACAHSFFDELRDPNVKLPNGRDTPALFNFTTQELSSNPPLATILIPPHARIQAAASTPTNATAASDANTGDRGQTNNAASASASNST
test: GSK3β ATP depletion assay
Assay type: biochemical
condition set: read-out: GSK3b IC50
Please assign no whenever IC50 is at or above 400 nM, and yes whenever it is below.

{"compound": "O=C(Nc1cnccc1[C@]1(C(F)(F)F)C[C@H](O)CCO1)c1ccc(F)c(-c2c(F)cccc2F)n1", "assigned category": "yes"}
{"compound": "N#CC[C@H]1O[C@@H](c2ccncc2NC(=O)c2nc(-c3c(F)cccc3F)c(F)cc2N)C[C@@H](O)[C@@H]1O [Example 152]", "assigned category": "no"}
{"compound": "CC[C@H]1O[C@@H](c2ccncc2NC(=O)c2nc(-c3ccccc3)ncc2N)C[C@@H](O)[C@@H]1O", "assigned category": "yes"}
{"compound": "N#CC[C@H]1O[C@@H](c2ccncc2NC(=O)c2ccc(F)c(-c3c(F)cccc3F)n2)CC[C@@H]1O", "assigned category": "no"}
{"compound": "O=C(Nc1cnccc1[C@H]1C[C@H](Cl)[C@H](O)[C@@H](CCl)O1)c1ccc(F)c(-c2c(F)cccc2F)n1", "assigned category": "no"}
{"compound": "C=C1[C@H](O)C[C@H](c2ccncc2NC(=O)c2ccc(F)c(-c3c(F)cccc3F)n2)OC12CC2", "assigned category": "no"}
{"compound": "CC[C@]1(O)[C@H](O)C[C@H](c2ccncc2NC(=O)c2nc(-c3nccs3)ccc2N)O[C@@H]1C", "assigned category": "no"}

###

measured target: PIM2 (Homo sapiens)
Sequence (Q9P1W9 whole entry): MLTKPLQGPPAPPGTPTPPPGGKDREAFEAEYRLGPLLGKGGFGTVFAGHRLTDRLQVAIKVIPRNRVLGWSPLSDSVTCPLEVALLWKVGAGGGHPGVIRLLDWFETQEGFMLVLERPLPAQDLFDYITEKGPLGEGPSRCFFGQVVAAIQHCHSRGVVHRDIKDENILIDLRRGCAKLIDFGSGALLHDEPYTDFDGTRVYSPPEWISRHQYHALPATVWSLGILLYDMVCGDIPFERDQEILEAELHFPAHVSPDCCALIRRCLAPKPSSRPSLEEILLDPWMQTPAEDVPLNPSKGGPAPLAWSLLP
test: Pim 2 AlphaScreen assay (high ATP)
Assay type: biochemical
condition set: read-out: Pim2 IC50
Recorded IC50 split into classes lowest = under 9 nM, middle = from 9 nM up to 400 nM, highest = 400 nM and over

{"compound": "CC(C)[C@H]1OC(c2ccncc2NC(=O)c2ccc(F)c(-c3c(F)cc(OCCO)cc3F)n2)C[C@@H](N)[C@@H]1O (stereo in doubt)", "assigned category": "lowest"}
{"compound": "C[C@@]1(O)[C@@H](N)C[C@@H](c2ccncc2NC(=O)c2nc(-c3ccccc3)cnc2N)OC12CC2", "assigned category": "highest"}
{"compound": "Cc1cc(F)c(-c2nc(C(=O)Nc3cnccc3[C@H]3C[C@@H](N)[C@H](O)[C@@H](C4CC4)O3)ccc2F)c(F)c1", "assigned category": "lowest"}
{"compound": "C[C@H]1O[C@@H](c2ccncc2NC(=O)c2nn(Cc3ccccc3)cc2N)C[C@@H](O)[C@]1(C)O", "assigned category": "highest"}
{"compound": "CC(C)(C)[C@@H]1O[C@H](c2ccncc2NC(=O)c2nc(-c3ccccc3)cnc2N)C[C@@H](N)[C@H]1O", "assigned category": "highest"}
{"compound": "CC[C@@H]1O[C@H](c2ccncc2NC(=O)c2ccc(F)c(-c3c(F)cccc3F)n2)C[C@H](N)[C@@]1(C)O (stereo in doubt)", "assigned category": "middle"}
{"compound": "CC(C)[C@H]1O[C@@H](c2ccncc2NC(=O)c2ccc(F)c(-c3c(F)ccc(C#N)c3F)n2)C[C@@H](N)[C@@H]1O", "assigned category": "middle"}
{"compound": "CC(C)[C@@H]1O[C@H](c2ccncc2NC(=O)c2nc(-c3ccccc3)cnc2N)C[C@H](N)[C@H]1O", "assigned category": "highest"}
{"compound": "CC(C)C(=O)Nc1cc(F)c(-c2nc(C(=O)Nc3cnccc3[C@H]3C[C@@H](N)[C@](C)(O)[C@@H](C)O3)ccc2F)c(F)c1", "assigned category": "lowest"}
{"compound": "Cc1cc(F)c(-c2nc(C(=O)Nc3cnccc3[C@@H]3C[C@@H](N)CC(C)(C)O3)ccc2F)c(F)c1", "assigned category": "lowest"}
